// cross-source set; read-out = Ki; system = Coagulation factor X (Homo sapiens)
Respond with the figure and its unit, in that order.

In: Would you kindly share the measured Ki for CC1(C(=O)Nc2ccc(-c3ccccc3S(N)(=O)=O)cn2)CC(c2cccc(C(=N)N)c2)=NO1 (centres undefined) ?
Out: 0.0041 µM

In: Would you kindly share the measured Ki for O=C1CN(S(=O)(=O)c2cc3ccc(Cl)nc3s2)CCN1Cc1cc2c[nH]ccc-2n1 ?
Out: 0.004 µM

In: Would you kindly share the measured Ki for N=C(N)c1cccc(C[C@H](NS(=O)(=O)c2cccc3ccccc23)C(=O)N2CCC(CCN=C(N)N)CC2)c1 ?
Out: 13 µM

In: Would you kindly share the measured Ki for N=C(N)c1cccc(C[C@H](NS(=O)(=O)c2ccc3ccccc3c2)C(=O)N2Cc3ccccc3C[C@@H]2C(=O)OCc2ccccc2)c1 ?
Out: 7.76 µM

---

// cross-source set; read-out = pKi; system = Coagulation factor X (Homo sapiens, UniProt P00742)
pKi is a log-scale quantity: -log10 of the concentration expressed in molar.

In: Would you kindly share the measured pKi for COC(=O)C(C)CN(c1ccc2c(c1)nc(C)n2Cc1ccc2ccc(C(=N)N)cc2c1)C1CCN(C(C)=N)CC1 (stereo not drawn) ?
Out: 7.10

In: Would you kindly share the measured pKi for N=C(N)c1cccc(C2=NOC(Cc3ccccc3)(C(=O)Nc3ccc(-c4ccccc4S(N)(=O)=O)cc3)C2)c1 (stereo not drawn) ?
Out: 8.07

In: Would you kindly share the measured pKi for COC(=O)CC1(C(=O)Nc2ccc(-c3ccccc3C)cc2)CC(c2cccc(C(=N)N)c2)=NO1 (stereo not drawn) ?
Out: 6.68

In: Would you kindly share the measured pKi for COc1cccc(Cn2c(C(=O)NC3CCN(C(C)C)CC3)c(C#N)c3cccc(C)c32)c1 ?
Out: 6.39

In: Would you kindly share the measured pKi for Cc1c(F)c(Oc2cccc(C(=N)N)c2)nc(Oc2cccc(C(=N)N)c2)c1F ?
Out: 7.89

In: Would you kindly share the measured pKi for N=C(N)c1ccc2c(c1)C(CC(=O)Nc1ccc(-c3ccccc3S(N)(=O)=O)cc1)CN2 (single isomer, unassigned; (-)) ?
Out: 7.28

In: Would you kindly share the measured pKi for N=C(N)c1cccc(Cn2c(C(=O)NCc3cccc(NC(N)=O)c3)cc3c(O)cccc32)c1 ?
Out: 6.74

---

// cross-source set; read-out = pKi; system = Coagulation factor X (Homo sapiens)
pKi is a log-scale quantity: -log10 of the concentration expressed in molar.

In: Observed pKi on Coagulation factor X (Homo sapiens) for NC(=O)c1cc(C(=O)N2CCc3ccc(N4CCCCCC4=O)cc32)n(-c2ccc3onc(N)c3c2)n1 , please.
Out: 5.96

In: Observed pKi on Coagulation factor X (Homo sapiens) for CCOc1cc(OC(C)C)c(F)c(C(Nc2ccc(C(=N)N)cc2)c2nc(-c3ccccc3)c[nH]2)c1 (stereo unspecified) , please.
Out: 6.12

In: Observed pKi on Coagulation factor X (Homo sapiens) for CC1CCN(C(=O)[C@H](Cc2cccc(C(=N)N)c2)NC(=O)OC(C)(C)C)CC1 , please.
Out: 4.19

In: Observed pKi on Coagulation factor X (Homo sapiens) for CC(=O)N1CCC(Oc2ccc(C(Oc3ccc4c(c3)CN(C(=N)N)CC4)C(=O)O)cc2)CC1 (stereo unspecified) , please.
Out: 6.40

In: Observed pKi on Coagulation factor X (Homo sapiens) for Cc1cc2ccc1[C@@H](C)COC(=O)Nc1ccc(C3CC3)c(c1)CN(C)C(=O)[C@@H]2Nc1ccc2c(N)ncc(F)c2c1 , please.
Out: 5.52

In: Observed pKi on Coagulation factor X (Homo sapiens) for CCCC(=O)Nc1cc(-c2ccc(C(N)=O)cc2C(=O)O)cc([C@@H]2C[C@](C)(c3ccccc3)c3cc(C(=N)N)ccc3N2)c1 (racemic) , please.
Out: 6.19

In: Observed pKi on Coagulation factor X (Homo sapiens) for Cc1c(F)c(N(C)c2cccc(C(=N)N)c2)nc(N(C)c2cccc(C(=N)N)c2)c1F , please.
Out: 7.01

In: Observed pKi on Coagulation factor X (Homo sapiens) for N=C(N)c1ccc(Oc2ccc(C(=O)NC3CCN(C(=O)CCN)CC3)c(Oc3ccc(C(=N)N)cc3)n2)cc1 , please.
Out: 5.64

In: Observed pKi on Coagulation factor X (Homo sapiens) for N=C(N)c1ccc(/C=C2\CC(c3ccccc3)C/C(=C\c3ccc(C(=N)N)cc3)C2=O)cc1 (stereo unspecified) , please.
Out: 5.48

In: Observed pKi on Coagulation factor X (Homo sapiens) for COc1cc([C@@H]2Nc3ccc(C(=N)N)cc3[C@H]3c4ccccc4C[C@H]32)c(-c2ccc(C(=O)O)cc2)cc1O (racemic) , please.
Out: 5.89

In: Observed pKi on Coagulation factor X (Homo sapiens) for COC(=O)[C@H]1Cc2ccccc2CN1C(=O)[C@H](Cc1cccc(C(=N)N)c1)NS(=O)(=O)c1ccc2ccccc2c1 , please.
Out: 4.57

In: Observed pKi on Coagulation factor X (Homo sapiens) for Cc1cc(C(=O)Nc2ccc(-c3ccccc3S(N)(=O)=O)cc2)n(-c2ccccc2)n1 , please.
Out: 6.70

In: Observed pKi on Coagulation factor X (Homo sapiens) for O=C(Nc1ccc(Cl)cc1)c1cc(Cl)ccc1NC(=O)c1sc(CN2CCOCC2)cc1Cl , please.
Out: 7.47

In: Observed pKi on Coagulation factor X (Homo sapiens) for O=C(Nc1ccc(Cl)cc1)c1cc(Cl)c(F)cc1NC(=O)c1sc2ccccc2c1Cl , please.
Out: 8.15

In: Observed pKi on Coagulation factor X (Homo sapiens) for N=C(N)c1ccc(/C=C2\CC/C(=C\c3ccc(C(=N)N)cc3)C2=O)cc1 , please.
Out: 5.34

In: Observed pKi on Coagulation factor X (Homo sapiens) for O=C1CN(S(=O)(=O)c2cc3ccccc3s2)CCN1Cc1cc2c[nH]ccc-2n1 , please.
Out: 6.02

In: Observed pKi on Coagulation factor X (Homo sapiens) for Cn1cncc1CCNC(=O)CN1CCN(S(=O)(=O)c2cc3ccc(Cl)cc3s2)CC1=O , please.
Out: 7.92
